# system-name: sigma-1 receptors (Homo sapiens (Human))
# Sequence (Q99720 whole entry, looked up): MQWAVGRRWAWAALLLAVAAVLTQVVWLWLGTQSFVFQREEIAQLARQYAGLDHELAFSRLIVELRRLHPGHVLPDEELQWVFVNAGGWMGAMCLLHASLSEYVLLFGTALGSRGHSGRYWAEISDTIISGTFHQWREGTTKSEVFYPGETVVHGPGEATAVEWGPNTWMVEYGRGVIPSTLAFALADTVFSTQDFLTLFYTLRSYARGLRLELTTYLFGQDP
# method-summary: biochemical
# Type: binding
# experimental-context: inhibition of radioligand binding; read-out: Sigma-1 Ki
property-name: pKi
Worth noting: pKi values are minus log10 of concentrations stated in mol/L.

Form: Entry = CN1CC[C@@]23CCCC[C@@H]2[C@@H]1Cc1ccc(O)c(Br)c13 | System = sigma-1 receptors (Homo sapiens (Human)) | pKi = ____
6.92

Form: Entry = CN1CC[C@@]23CCCCC2C1Cc1ccc(OCC(F)F)c(Br)c13 (stereo partly shown) [CNS6-A1-D2] | System = sigma-1 receptors (Homo sapiens (Human)) | pKi = ____
7.82

Form: Entry = [2H]C([2H])(Oc1ccc2c(c1)[C@]1(CCN(C)CC=C)CCCC[C@@H]1C=C2)C(F)F [CNS23-D2] | System = sigma-1 receptors (Homo sapiens (Human)) | pKi = ____
8.11

// below: pKi requested for another compound
Form: Entry = [2H]C([2H])(Oc1ccc2c(c1)[C@]13CCCC[C@@H]1[C@H](C2)NCC3)C(F)F [N-desmethyl CNS1-D2] | System = sigma-1 receptors (Homo sapiens (Human)) | pKi = ____
7.15

// provenance: patent US11535596B2
